This collection of values is drawn from PubChem BioAssay AID1159580.

- protocol.notes: chemical genetic growth profiling, strain panel (AID 1159580);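 further: tested at 20 µM; growth read once vehicle control cultures reached saturation at 30 °C; 1 = growth at the plate median or of vehicle wells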
- test.conditions: S. cerevisiae deletion strains, growth OD, locus YJL154C, strain vps35
The campaign covered roughly 5,500 compounds. About 2,000 (36%) were called active. Not shown: some 18% with an inconclusive outcome. No stated cut-off is given here; in the data, active means normalized growth mostly below about 0.91 (no sharp cut-off); inconclusive means no clear call, values can overlap the other calls; inactive means mostly above about 0.92. The list shows a part of the results.
Write down the outcome that applies. Available outcomes: 1 (yes) for active, 0 (no) for inactive

Worked examples follow.
# compound, cat
rows = [
    ("O=C(O)C1CC([C@@H]2CCCCN2)CN2CCCCC12 (stereo partly drawn)", "0 (no)"),
    ("CO[C@H]1C[C@H](O[C@H]2[C@H](C)[C@@H](OC3O[C@H](C)C[C@H](N(C)C)[C@H]3O)[C@@H](C)C[C@]3(CO3)C(=O)[C@H](C)[C@@H](O)[C@@H](C)[C@@H](C)OC(=O)[C@@H]2C)O[C@@H](C)[C@@H]1O (stereo partly drawn)", "0 (no)"),
    ("CC(C(=O)O)c1ccc2c(c1)[nH]c1ccc(Cl)cc12 (stereo not drawn)", "0 (no)"),
]

Switching to the query record.
Prompt: I'd appreciate the recorded outcome for COc1cccc2c1CCC1CC(=O)CCC21C (stereo not drawn) from this test.
Response: 0 (no)

----------
- protocol.notes: chemical genetic growth profiling, strain panel (AID 1159580);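 further: tested at 20 µM; growth read once vehicle control cultures reached saturation at 30 °C; 1 = growth at the plate median or of vehicle wells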
- test.conditions: S. cerevisiae deletion strains, growth OD, locus YLR262C, strain YPT6, stronger effect = lower value
In all, about 5,500 compounds went through this assay and about 2,000 (36%) were called active. Not shown: some 18% with an inconclusive outcome. Some of the results follow.
observable: normalized growth

Example cases with answers are listed next.
# compound, observable, recorded.value
rows = [
    ("COc1ccc2c(c1)OC[C@@H](Cc1ccc(OC)c(OC)c1)[C@H]2O", "normalized growth", "0.641 (inactive)"),
    ("O=C(O)C1C(O)CCC2CN3CCc4c([nH]c5ccccc45)C3CC21 (stereo not given)", "normalized growth", "1.06 (inactive)"),
    ("O=C(CSc1ccc(C(F)(F)F)cn1)N1CCc2c([nH]c3ccccc23)C1C(F)(F)F (stereo not given)", "normalized growth", "0.982 (inactive)"),
    ("COC(=O)[C@H]1[C@H]2C[C@H]3c4[nH]c5ccccc5c4CCN3C[C@H]2CC[C@@H]1O", "normalized growth", "1.08 (inactive)"),
]

Prompt: Param item = FC(F)(F)c1ccnc(-n2ccc(-c3cccs3)n2)n1 ; retrieve measured normalized growth.
Response: 0.795 (active)

----------
- protocol.notes: chemical genetic growth profiling, strain panel (AID 1159580);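 further: tested at 20 µM; growth read once vehicle control cultures reached saturation at 30 °C; 1 = growth at the plate median or of vehicle wells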
- test.conditions: S. cerevisiae deletion strains, growth OD, locus YKL160W, strain elf1, stronger effect = lower value
About 2,000 (36%) of roughly 5,500 compounds were called active. Roughly 18% stayed inconclusive and do not appear here. The list shows a part of the results.
Measured normalized growth values are reported for all entries that follow.
Enter a number only.

Observe how each entry below is paired with its result.
# molecule, recorded.value
measured = [
    ("CCc1nc(N)nc(N)c1-c1ccc(Cl)cc1", 0.948),
    ("COc1ccc2cc1Oc1ccc(cc1)C[C@H]1c3c(cc4c(c3Oc3cc5c(cc3OC)CCN(C)[C@@H]5C2)OCO4)CCN1C", 1.05),
    ("Cc1cc(=O)c2c(O)c(C)c(O)cc2o1", 1.02),
    ("C=C1CC[C@H](O)C/C1=C/C=C1\\CCC[C@]2(C)C([C@H](C)/C=C/[C@H](C)C(C)C)CC[C@@H]12 (stereo not given in full)", 1.01),
    ("O=c1ccc2cc(O)c(O)cc2o1", 0.961),
    ("COc1ccc(-c2coc3c(O)c(OC)ccc3c2=O)cc1", 0.869),
    ("Cc1cc(=O)c2c(O)cc(O)c(C)c2o1", 0.908),
    ("CC(=O)O[C@@](C)(CCC=C(C)C)C1CC=C(C)CC1 (stereo not given in full)", 0.993),
]

// switching to the query molecule
Prompt: Entry C[C@@H](N)CO has what normalized growth?
Response: 0.968
